test system: SF-539 CNS; assay: NCI tumour cell line growth inhibition, 48 h
Property: TGI; scope: individual compounds

- smiles: "COc1cc2c(cc1Cl)n([O-])c(C#N)c(N1CCN(c3ccc([N+](=O)[O-])cc3)CC1)[n+]2=O"
  targetUnderTest: "SF-539 CNS"
  TGI: "44.3 µM"
- smiles: "CCCCCCN1CCN(Cc2ccc(N(CC)CC)cc2)C(=O)C1=O"
  targetUnderTest: "SF-539 CNS"
  TGI: "8.23 µM"
- smiles: "O=[N+]([O-])/C=C/c1ccc([N+](=O)[O-])cc1"
  targetUnderTest: "SF-539 CNS"
  TGI: "4.89 µM"
- smiles: "C[Si]12OCCCN(CCO1)CCO2"
  targetUnderTest: "SF-539 CNS"
  TGI: "> 100 µM"
- smiles: "CCOC(=O)c1cnc2cc3cccccc3n2c1=O"
  targetUnderTest: "SF-539 CNS"
  TGI: "> 100 µM"
